# system_tested: Quinolone resistance protein NorA (Staphylococcus aureus)
# Sequence (whole entry): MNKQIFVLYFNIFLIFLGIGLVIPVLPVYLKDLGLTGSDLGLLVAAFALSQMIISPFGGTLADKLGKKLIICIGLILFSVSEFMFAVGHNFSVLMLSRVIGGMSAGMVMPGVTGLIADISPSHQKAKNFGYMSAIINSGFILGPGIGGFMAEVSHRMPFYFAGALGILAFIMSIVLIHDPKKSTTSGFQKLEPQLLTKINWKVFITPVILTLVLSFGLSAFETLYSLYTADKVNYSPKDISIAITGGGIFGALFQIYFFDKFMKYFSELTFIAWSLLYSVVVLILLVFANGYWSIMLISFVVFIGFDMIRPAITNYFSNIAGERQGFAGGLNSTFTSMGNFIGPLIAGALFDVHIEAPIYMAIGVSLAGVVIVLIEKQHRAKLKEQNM
# test_details: Inhibition of NorA efflux pump in Staphylococcus aureus SA-1199B assessed as inhibition of EtBr efflux at 50 uM
assay_metric: inhibition (%)

1) CCOC(=O)C1=C(O)c2cc(N)c(N3CCN(C)CC3)cc2N(C2CC2)S1(=O)=O	0
2) CNC(=O)C1=C(O)c2cc(N)c(N3CCN(C)CC3)cc2N(C2CC2)S1(=O)=O	2
3) CN1CCN(c2cc3c(cc2N)C(=O)CS(=O)(=O)N3C2CC2)CC1	7
4) CC1C(=O)c2cc(N)c(N3CCN(C)CC3)cc2N(C2CC2)S1(=O)=O (stereo not given)	27
5) CCOC(=O)C1(C)C(=O)c2cc(N)c(N3CCN(C)CC3)cc2N(C2CC2)S1(=O)=O (stereo not given)	25

* * *

# system_tested: Quinolone resistance protein NorA (Staphylococcus aureus) (UniProt P0A0J7)
# test_details: Inhibition of NorA efflux pump in norA-overexpressing Staphylococcus aureus SA-K2378 assessed as reduction in ciprofloxacin MIC at 0.78 to 100 ug/ml by isobologram based checkerboard assay
The source made the active and inactive calls. No cut-off for these calls is given here.
assay_metric: inhibition

1) Fc1ccc([C@@H]2CCNC[C@H]2COc2ccc3c(c2)OCO3)cc1	Active
2) COC(=O)[C@H]1[C@H]2C[C@@H]3c4[nH]c5cc(OC)ccc5c4CCN3C[C@H]2C[C@@H](OC(=O)c2cc(OC)c(OC)c(OC)c2)[C@@H]1OC	Active
3) CCOC(=O)C1(C)C(=O)c2cc(N)c(N3CCN(C)CC3)cc2N(C2CC2)S1(=O)=O (centres undefined)	Dose-dependent effect
4) CC1C(=O)c2cc(N)c(N3CCN(C)CC3)cc2N(C2CC2)S1(=O)=O (centres undefined)	Dose-dependent effect
